Test system: RBM10 RRM1-ZnF (GST-tagged construct);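 further: 20 pmol protein with 1.5 nmol RNA pool for 30 min at 4°C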
test_protocol: RNAcompete 7-mer binding Z-score; higher = stronger binding preference
Over roughly 16,000 sequences, “Z-score” has its median near -0.37; the highest 2% begin near 3.2. This is one part of a sample in which the highest values are shown more often than they occur.
reported_property: RNAcompete 7-mer binding Z-score
Could you keep your reply to the number by itself?

Recorded RNAcompete 7-mer binding Z-score for UAGGGUC on RBM10 RRM1-ZnF (GST-tagged construct) was 1.55

Recorded RNAcompete 7-mer binding Z-score for CUUUAUG on RBM10 RRM1-ZnF (GST-tagged construct) was -0.763

Recorded RNAcompete 7-mer binding Z-score for AAGGGUA on RBM10 RRM1-ZnF (GST-tagged construct) was 4.59

Recorded RNAcompete 7-mer binding Z-score for CACAUGU on RBM10 RRM1-ZnF (GST-tagged construct) was -0.448

Recorded RNAcompete 7-mer binding Z-score for CGUAGGG on RBM10 RRM1-ZnF (GST-tagged construct) was 1.94

Recorded RNAcompete 7-mer binding Z-score for UAAUGCA on RBM10 RRM1-ZnF (GST-tagged construct) was -0.386

Recorded RNAcompete 7-mer binding Z-score for CCUCCUC on RBM10 RRM1-ZnF (GST-tagged construct) was -0.542

Recorded RNAcompete 7-mer binding Z-score for UAUGGGU on RBM10 RRM1-ZnF (GST-tagged construct) was 2.81

Recorded RNAcompete 7-mer binding Z-score for GGGAACA on RBM10 RRM1-ZnF (GST-tagged construct) was 2.67

Recorded RNAcompete 7-mer binding Z-score for ACAACCA on RBM10 RRM1-ZnF (GST-tagged construct) was -0.464

Recorded RNAcompete 7-mer binding Z-score for CUGUCGG on RBM10 RRM1-ZnF (GST-tagged construct) was -0.305

Recorded RNAcompete 7-mer binding Z-score for AAUGGGG on RBM10 RRM1-ZnF (GST-tagged construct) was 4.2

Recorded RNAcompete 7-mer binding Z-score for UGACAGG on RBM10 RRM1-ZnF (GST-tagged construct) was 2.13

Recorded RNAcompete 7-mer binding Z-score for AAUGGCU on RBM10 RRM1-ZnF (GST-tagged construct) was 0.303

Recorded RNAcompete 7-mer binding Z-score for UGAGGAG on RBM10 RRM1-ZnF (GST-tagged construct) was 1.86

----------
Test system: RBM10 RRM1-ZnF (GST-tagged construct);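 further: 20 pmol protein with 1.5 nmol RNA pool for 30 min at 4°C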
test_protocol: RNAcompete 7-mer binding Z-score; higher = stronger binding preference
The full ranking holds about 16,000 sequences; the median of “Z-score” is about -0.37, and the highest 2% start at about 3.2. This is one part of a sample in which the highest values are shown more often than they occur.
Rule: RNAcompete 7-mer binding Z-score of 2 or more gives Criterion met; anything lower gives Criterion not met.

Quick check: does AAGGGCU have RNAcompete 7-mer binding Z-score greater than or equal to 2? Criterion not met

Quick check: does GAUGGAC have RNAcompete 7-mer binding Z-score greater than or equal to 2? Criterion not met

Quick check: does GCGGGAG have RNAcompete 7-mer binding Z-score greater than or equal to 2? Criterion met

Quick check: does CUGCGGC have RNAcompete 7-mer binding Z-score greater than or equal to 2? Criterion not met

Quick check: does AAUCUAA have RNAcompete 7-mer binding Z-score greater than or equal to 2? Criterion not met

Quick check: does AGUGGAA have RNAcompete 7-mer binding Z-score greater than or equal to 2? Criterion met

Quick check: does CCGCACC have RNAcompete 7-mer binding Z-score greater than or equal to 2? Criterion not met

Quick check: does AUACGAA have RNAcompete 7-mer binding Z-score greater than or equal to 2? Criterion not met

Quick check: does GAUAAGG have RNAcompete 7-mer binding Z-score greater than or equal to 2? Criterion met

Quick check: does AUAGCAG have RNAcompete 7-mer binding Z-score greater than or equal to 2? Criterion not met

Quick check: does GAGGACC have RNAcompete 7-mer binding Z-score greater than or equal to 2? Criterion not met

Quick check: does AUUUAAC have RNAcompete 7-mer binding Z-score greater than or equal to 2? Criterion not met

Quick check: does GUGGGCA have RNAcompete 7-mer binding Z-score greater than or equal to 2? Criterion met

Quick check: does AUUGGGA have RNAcompete 7-mer binding Z-score greater than or equal to 2? Criterion met

Quick check: does UUAGAAU have RNAcompete 7-mer binding Z-score greater than or equal to 2? Criterion not met

Quick check: does GAUGGAU have RNAcompete 7-mer binding Z-score greater than or equal to 2? Criterion met

Quick check: does AGUGGGG have RNAcompete 7-mer binding Z-score greater than or equal to 2? Criterion met

Quick check: does CUGGGGU have RNAcompete 7-mer binding Z-score greater than or equal to 2? Criterion met

Quick check: does GGUAUGU have RNAcompete 7-mer binding Z-score greater than or equal to 2? Criterion not met

Quick check: does GGUAUGG have RNAcompete 7-mer binding Z-score greater than or equal to 2? Criterion met

Quick check: does UCGCGUA have RNAcompete 7-mer binding Z-score greater than or equal to 2? Criterion not met

Quick check: does CAAAAGG have RNAcompete 7-mer binding Z-score greater than or equal to 2? Criterion not met

Quick check: does AUGUAAG have RNAcompete 7-mer binding Z-score greater than or equal to 2? Criterion not met

Quick check: does CCUAAGG have RNAcompete 7-mer binding Z-score greater than or equal to 2? Criterion not met

Quick check: does AGAGGGG have RNAcompete 7-mer binding Z-score greater than or equal to 2? Criterion met

Quick check: does AGUGGAC have RNAcompete 7-mer binding Z-score greater than or equal to 2? Criterion not met

Quick check: does GGUGCGG have RNAcompete 7-mer binding Z-score greater than or equal to 2? Criterion met

Quick check: does AGUGGGU have RNAcompete 7-mer binding Z-score greater than or equal to 2? Criterion met

Quick check: does CACGGGG have RNAcompete 7-mer binding Z-score greater than or equal to 2? Criterion met

Quick check: does AGGGGGC have RNAcompete 7-mer binding Z-score greater than or equal to 2? Criterion not met

Quick check: does GAAUCGG have RNAcompete 7-mer binding Z-score greater than or equal to 2? Criterion not met

Quick check: does ACUCGGG have RNAcompete 7-mer binding Z-score greater than or equal to 2? Criterion not met

Quick check: does GACGGGG have RNAcompete 7-mer binding Z-score greater than or equal to 2? Criterion met

Quick check: does GGAGAGA have RNAcompete 7-mer binding Z-score greater than or equal to 2? Criterion not met

Quick check: does ACUGGGU have RNAcompete 7-mer binding Z-score greater than or equal to 2? Criterion met

Quick check: does AUGGGUG have RNAcompete 7-mer binding Z-score greater than or equal to 2? Criterion met

Quick check: does GUGGGAG have RNAcompete 7-mer binding Z-score greater than or equal to 2? Criterion met

Quick check: does AGAAAGG have RNAcompete 7-mer binding Z-score greater than or equal to 2? Criterion met

Quick check: does GUAGAGG have RNAcompete 7-mer binding Z-score greater than or equal to 2? Criterion met

Quick check: does AAGAGCG have RNAcompete 7-mer binding Z-score greater than or equal to 2? Criterion not met

Quick check: does AAAGGGG have RNAcompete 7-mer binding Z-score greater than or equal to 2? Criterion met

Quick check: does GUGGGGA have RNAcompete 7-mer binding Z-score greater than or equal to 2? Criterion met

Quick check: does GGUGGGA have RNAcompete 7-mer binding Z-score greater than or equal to 2? Criterion met

Quick check: does AAGGGGC have RNAcompete 7-mer binding Z-score greater than or equal to 2? Criterion met

Quick check: does CUGAGGC have RNAcompete 7-mer binding Z-score greater than or equal to 2? Criterion not met

Quick check: does UUGGGAC have RNAcompete 7-mer binding Z-score greater than or equal to 2? Criterion not met

Quick check: does GUGGGUU have RNAcompete 7-mer binding Z-score greater than or equal to 2? Criterion met

Quick check: does GGAGGGG have RNAcompete 7-mer binding Z-score greater than or equal to 2? Criterion met

Quick check: does AAGGGGU have RNAcompete 7-mer binding Z-score greater than or equal to 2? Criterion met

Quick check: does GGAGGGC have RNAcompete 7-mer binding Z-score greater than or equal to 2? Criterion met

Quick check: does CGCCAUA have RNAcompete 7-mer binding Z-score greater than or equal to 2? Criterion not met

Quick check: does UAUGGAG have RNAcompete 7-mer binding Z-score greater than or equal to 2? Criterion not met

Quick check: does CAUGGAG have RNAcompete 7-mer binding Z-score greater than or equal to 2? Criterion not met

Quick check: does AGUGUGG have RNAcompete 7-mer binding Z-score greater than or equal to 2? Criterion met

Quick check: does UAAAUAG have RNAcompete 7-mer binding Z-score greater than or equal to 2? Criterion not met

Quick check: does GUGGGUA have RNAcompete 7-mer binding Z-score greater than or equal to 2? Criterion met

Quick check: does CCACUAC have RNAcompete 7-mer binding Z-score greater than or equal to 2? Criterion not met

Quick check: does AGGUAAA have RNAcompete 7-mer binding Z-score greater than or equal to 2? Criterion not met

Quick check: does CGUUACU have RNAcompete 7-mer binding Z-score greater than or equal to 2? Criterion not met

Quick check: does GCUCAAG have RNAcompete 7-mer binding Z-score greater than or equal to 2? Criterion not met

Quick check: does UUAGAGG have RNAcompete 7-mer binding Z-score greater than or equal to 2? Criterion not met
